The reported measurements were obtained from the RNAGym collection of RNA variant scans (doi:10.1073/pnas.2313332121).

Listed here are variants together with their documented polymerase ribozyme fitness (log ratio).
B1: TPR 5TU (parent)
chain: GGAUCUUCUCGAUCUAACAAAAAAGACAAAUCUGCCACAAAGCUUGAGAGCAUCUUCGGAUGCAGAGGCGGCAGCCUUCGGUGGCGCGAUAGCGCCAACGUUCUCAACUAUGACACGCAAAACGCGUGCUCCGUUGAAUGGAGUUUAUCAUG

- Variants of: B1
- test-method-notes: polymerase ribozyme fitness, log enrichment relative to wild type (log ratio); higher = more active; in vitro selection for triplet polymerase activity
Variants at the floor of the assay were thinned out.

Please review the entries below; each comes with its answer.
Just so you know, measured polymerase ribozyme fitness (log ratio) for A49C A60G G67U C85U C93G A97G came out at ≤ -4.2

Just so you know, measured polymerase ribozyme fitness (log ratio) for C18U A37U G83A C87U U90G A98C C116A G133U A137C came out at ≤ -4.2

Others:
Just so you know, measured polymerase ribozyme fitness (log ratio) for U9G C18U A39G A49C C51A G94U A106G came out at ≤ -4.2

Just so you know, measured polymerase ribozyme fitness (log ratio) for C10G A30U C43G G58A G68A G80A A113C came out at ≤ -4.2
